Entry source: patent US9006451B1

# Tested on: T-47D
# assay name: NCI 60 human tumor cell line screen (SRB): T-47D
# Format: cell-based
# test context: T47D, Breast, 48 hours, read-out: GI50 values (μM conc.)
# Experimental: The in vitro anticancer activity studies for these chalcone analogues were carried out at the National Cancer Institute, USA. The chalcone compounds have been tested at NCI, USA, against sixty human tumor cell lines derived from nine cancer types (leukemia, non-small cell lung cancer, colon cancer, CNS cancer, melanoma cancer, ovarian cancer, renal cancer, prostate cancer and breast cancer). For these compounds results are expressed as growth inhibition (GI50) values as per NCI protocol. […]
quantity: GI50 (µM)
Respond numerically; units are µM and should not be typed.

Consider the worked cases shown below.
>  <smiles entry>
COc1cc(Nc2ncccc2/C=C/C(=O)c2cc(OC)c(OC)c(OC)c2)cc(OC)c1OC

>  <target>
T-47D

>  <units of measure>
µM

>  <reading>
5.3

$$$$
>  <smiles entry>
COc1ccc(Nc2ncccc2/C=C/C(=O)c2cc(OC)c(OC)c(OC)c2)cc1

>  <target>
T-47D

>  <units of measure>
µM

>  <reading>
1.67

$$$$
>  <smiles entry>
COc1cc(C(=O)/C=C/c2cccnc2Nc2ccc(Cl)cc2)cc(OC)c1OC

>  <target>
T-47D

>  <units of measure>
µM

>  <reading>
1.42

$$$$
>  <smiles entry>
COc1cc(/C=C/C(=O)c2cccnc2Nc2ccc(F)cc2)cc(OC)c1OC

>  <target>
T-47D

>  <units of measure>
µM

>  <reading>
3.06

$$$$
>  <smiles entry>
COc1cc(C(=O)/C=C/c2cccnc2Nc2ccccc2)cc(OC)c1OC

>  <target>
T-47D

>  <units of measure>
µM

>  <reading>
1.43

$$$$

Please examine the following record next.
What value of measured GI50 is listed for `COc1ccc(C(=O)/C=C/c2cccnc2Nc2cc(OC)c(OC)c(OC)c2)cc1` ?
2.04

----------
# Tested on: HCT-116
# assay name: NCI 60 human tumor cell line screen (SRB): HCT-116
# Format: cell-based
# test context: HCT-116, Colon, 48 hours, read-out: GI50 values (μM conc.)
Reported GI50 values for the following compounds.
Respond numerically; units are µM and should not be typed.

Consider the worked cases shown below.
>  <smiles entry>
COc1ccc(Nc2ncccc2/C=C/C(=O)c2cc(OC)c(OC)c(OC)c2)cc1

>  <units of measure>
µM

>  <GI50>
1.02

$$$$
>  <smiles entry>
COc1cc(/C=C/C(=O)c2cccnc2Nc2ccc(F)cc2)cc(OC)c1OC

>  <units of measure>
µM

>  <GI50>
1.54

$$$$

What value of measured GI50 is listed for `COc1cc(Nc2ncccc2/C=C/C(=O)c2cc(OC)c(OC)c(OC)c2)cc(OC)c1OC` ?
3.77

What value of measured GI50 is listed for `COc1cc(C(=O)/C=C/c2cccnc2Nc2ccc(Cl)cc2)cc(OC)c1OC` ?
0.56

What value of measured GI50 is listed for `COc1ccc(C(=O)/C=C/c2cccnc2Nc2cc(OC)c(OC)c(OC)c2)cc1` ?
0.53

What value of measured GI50 is listed for `COc1cc(C(=O)/C=C/c2cccnc2Nc2ccccc2)cc(OC)c1OC` ?
0.33

----------
Reported GI50 values for the following compounds.
# Tested on: U251
# assay name: NCI 60 human tumor cell line screen (SRB): U251
# Format: cell-based
# test context: U-251, U251, CNS, 48 hours, read-out: GI50 values (μM conc.)
Respond numerically; units are µM and should not be typed.

Consider the worked cases shown below.
>  <compound>
COc1ccc(Nc2ncccc2/C=C/C(=O)c2cc(OC)c(OC)c(OC)c2)cc1 [6h]

>  <target>
U251

>  <units of measure>
µM

>  <reading>
1.27

$$$$
>  <compound>
COc1cc(C(=O)/C=C/c2cccnc2Nc2ccc(Cl)cc2)cc(OC)c1OC [6ax]

>  <target>
U251

>  <units of measure>
µM

>  <reading>
1.25

$$$$
>  <compound>
COc1cc(/C=C/C(=O)c2cccnc2Nc2ccc(F)cc2)cc(OC)c1OC [7f]

>  <target>
U251

>  <units of measure>
µM

>  <reading>
2.78

$$$$
>  <compound>
COc1cc(C(=O)/C=C/c2cccnc2Nc2ccccc2)cc(OC)c1OC [6a]

>  <target>
U251

>  <units of measure>
µM

>  <reading>
1.12

$$$$
>  <compound>
COc1cc(Nc2ncccc2/C=C/C(=O)c2cc(OC)c(OC)c(OC)c2)cc(OC)c1OC [6v]

>  <target>
U251

>  <units of measure>
µM

>  <reading>
4.1

$$$$

What value of measured GI50 is listed for COc1ccc(C(=O)/C=C/c2cccnc2Nc2cc(OC)c(OC)c(OC)c2)cc1 [6z] ?
1.27

----------
# System: OVCAR-4
# assay name: NCI 60 human tumor cell line screen (SRB): OVCAR-4
# Format: cell-based
# test context: OVCAR-4, Ovarian, 48 hours, read-out: GI50 values (μM conc.)
quantity: GI50 (µM)
Respond numerically; units are µM and should not be typed.

Consider the worked cases shown below.
>  <smiles entry>
COc1cc(/C=C/C(=O)c2cccnc2Nc2ccc(F)cc2)cc(OC)c1OC

>  <target>
OVCAR-4

>  <reading>
3.81

$$$$
>  <smiles entry>
COc1cc(C(=O)/C=C/c2cccnc2Nc2ccccc2)cc(OC)c1OC

>  <target>
OVCAR-4

>  <reading>
1.45

$$$$
>  <smiles entry>
COc1ccc(C(=O)/C=C/c2cccnc2Nc2cc(OC)c(OC)c(OC)c2)cc1

>  <target>
OVCAR-4

>  <reading>
1.78

$$$$
>  <smiles entry>
COc1cc(Nc2ncccc2/C=C/C(=O)c2cc(OC)c(OC)c(OC)c2)cc(OC)c1OC

>  <target>
OVCAR-4

>  <reading>
9.78

$$$$
>  <smiles entry>
COc1cc(C(=O)/C=C/c2cccnc2Nc2ccc(Cl)cc2)cc(OC)c1OC

>  <target>
OVCAR-4

>  <reading>
1.51

$$$$

What value of measured GI50 is listed for `COc1ccc(Nc2ncccc2/C=C/C(=O)c2cc(OC)c(OC)c(OC)c2)cc1` ?
1.62

----------
# System: MCF7
# assay name: NCI 60 human tumor cell line screen (SRB): MCF7
# Format: cell-based
# test context: MCF7, Breast, 48 hours, SRB, read-out: GI50 values (μM conc.)
Reported GI50 values for the following compounds.
Respond numerically; units are µM and should not be typed.

>  <smiles entry>
COc1cc(/C=C/C(=O)c2cccnc2Nc2ccc(F)cc2)cc(OC)c1OC

>  <target>
MCF7

>  <GI50 [µM]>
2.44

$$$$
>  <smiles entry>
COc1ccc(Nc2ncccc2/C=C/C(=O)c2cc(OC)c(OC)c(OC)c2)cc1

>  <target>
MCF7

>  <GI50 [µM]>
0.69

$$$$

Please examine the following record next.
What value of measured GI50 is listed for `COc1ccc(C(=O)/C=C/c2cccnc2Nc2cc(OC)c(OC)c(OC)c2)cc1` ?
0.18

----------
# Tested on: COLO-205
# assay name: NCI 60 human tumor cell line screen (SRB): COLO-205
# Format: cell-based
# test context: COLO-205, Colon, 48 hours, read-out: GI50 values (μM conc.)
quantity: GI50 (µM)
Respond numerically; units are µM and should not be typed.

Consider the worked cases shown below.
>  <compound>
COc1ccc(C(=O)/C=C/c2cccnc2Nc2cc(OC)c(OC)c(OC)c2)cc1 [6z]

>  <quantity>
GI50

>  <reading>
1.54

$$$$
>  <compound>
COc1ccc(Nc2ncccc2/C=C/C(=O)c2cc(OC)c(OC)c(OC)c2)cc1 [6h]

>  <quantity>
GI50

>  <reading>
1.69

$$$$

What value of measured GI50 is listed for COc1cc(/C=C/C(=O)c2cccnc2Nc2ccc(F)cc2)cc(OC)c1OC [7f] ?
2.64

----------
# Tested on: MCF7
# assay name: NCI 60 human tumor cell line screen (SRB): MCF7
# Assay type: cell-based
# test context: MCF7, Breast, 48 hours, SRB, read-out: GI50 values (μM conc.)
Reported GI50 values for the following compounds.
Could you give the number and then its unit, please?

Consider the worked cases shown below.
>  <smiles entry>
COc1cc(C(=O)/C=C/c2cccnc2Nc2ccc(Cl)cc2)cc(OC)c1OC

>  <GI50>
1.02 µM

$$$$
>  <smiles entry>
COc1cc(C(=O)/C=C/c2cccnc2Nc2ccccc2)cc(OC)c1OC

>  <GI50>
0.35 µM

$$$$

State its GI50 on MCF7: `COc1cc(Nc2ncccc2/C=C/C(=O)c2cc(OC)c(OC)c(OC)c2)cc(OC)c1OC`
3.97 µM

----------
# System: COLO-205
# assay name: NCI 60 human tumor cell line screen (SRB): COLO-205
# Assay type: cell-based
# test context: COLO-205, Colon, 48 hours, read-out: GI50 values (μM conc.)
quantity: GI50 (µM)
Respond numerically; units are µM and should not be typed.

Consider the worked cases shown below.
>  <molecule>
COc1cc(C(=O)/C=C/c2cccnc2Nc2ccccc2)cc(OC)c1OC [6a]

>  <GI50, µM>
1.29

$$$$
>  <molecule>
COc1cc(C(=O)/C=C/c2cccnc2Nc2ccc(Cl)cc2)cc(OC)c1OC [6ax]

>  <GI50, µM>
1.83

$$$$

Please examine the following record next.
What value of measured GI50 is listed for COc1cc(Nc2ncccc2/C=C/C(=O)c2cc(OC)c(OC)c(OC)c2)cc(OC)c1OC [6v] ?
4.44
